Test: RAM signaling pathway blockade in yeast – S. cerevisiae, Pdr1DBD-CYC8 efflux-inhibited sensitized strain, primary screen (AID 1298);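 note: 0% = DMSO untreated cells without growth and 100% = 10 µM 1-NA-PP1 full growth; higher means more yeast growth rescued from 5-FOA killing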
Settings: S. cerevisiae cbk1-as DSE1-URA3 strain, 5-FOA growth OD615, 2 d; at 50 µM; hits give high values
Below is a list of entries, each paired with its recorded RAM network inhibition value.
measured_attribute: RAM network inhibition (%)

[[record]]
molecule = "Cn1c(NCCO)nc2c(c1=O)C1(CCCCC1)Cc1ccccc1-2"
observed_value = 5

[[record]]
molecule = "O=C(NCc1cn2ccccc2n1)c1ccc(Br)o1"
observed_value = 3.98

[[record]]
molecule = "CC(C)c1ccc2c(c1)C(=O)NC(C)(C)C2"
observed_value = 4.27

[[record]]
molecule = "CCOC(=O)N1CCN(C(=O)CSc2nc3c(cnn3-c3ccc(C)cc3)c(=O)[nH]2)CC1"
observed_value = 3.12

[[record]]
molecule = "Cc1cccc(NC(=O)c2cccnc2)c1"
observed_value = 5.69

[[record]]
molecule = "O=C(O)CSCCc1ccccn1"
observed_value = 4.45

[[record]]
molecule = "C=CCNc1nc2c(c(=O)n(C)c(=O)n2C)n1CC(=C)C"
observed_value = 1.58

[[record]]
molecule = "Cc1cc(C(C)(C)C)ccc1OCCN(C)C"
observed_value = 2.2

[[record]]
molecule = "O=C(NCCN1CCCCC1)c1ccc2c(c1)OCCO2"
observed_value = 2.64

[[record]]
molecule = "CCCC1(C(=O)O)NC(c2ccccc2O)C2C(=O)N(c3cccc(Cl)c3)C(=O)C21 (centres undefined)"
observed_value = 0.05

[[record]]
molecule = "COc1ccc(C2CC(c3cccc(C)c3)n3nc(N)nc3N2)cc1 (centres undefined)"
observed_value = 1.68

[[record]]
molecule = "COc1ccc(NS(=O)(=O)c2ccc(OC)c(OC)c2)cc1OC"
observed_value = 0

[[record]]
molecule = "Cn1c(Cn2c(=O)sc3ccccc32)nnc1SCC(=O)N1CCCc2ccccc21"
observed_value = 6.16

[[record]]
molecule = "CC(=O)C1=C(O)C(=O)N(c2nnn(C)n2)C1c1cccs1 (centres undefined)"
observed_value = 0.72

[[record]]
molecule = "CCn1cc(C(=O)N2CCN(Cc3ccc4c(c3)OCO4)CC2)c2cc(OC)c(OC)cc2c1=O"
observed_value = 2.76

[[record]]
molecule = "COC(=O)CN(c1ccc(C(C)C)cc1)S(=O)(=O)c1c(C)[nH]c(=O)[nH]c1=O"
observed_value = 2.71

[[record]]
molecule = "COC(=O)C1=CN(C)C=C(C(=O)OC)C1c1ccc(Cl)cc1Cl"
observed_value = 8.48

[[record]]
molecule = "Cc1sc2nc(NCCO)[nH]c(=O)c2c1C"
observed_value = -1.79

[[record]]
molecule = "COc1ccc(OC)c2c1sc(=NC(=O)CN1C(=O)CCC1=O)n2C"
observed_value = 2.41

[[record]]
molecule = "Cc1nc2ccccc2c2oc(C(=O)NC3CC3)cc12"
observed_value = -1.66

[[record]]
molecule = "COc1ccc(-n2c(Cc3cc(=O)[nH]c(=O)[nH]3)nnc2SCC(=O)Nc2ccccc2)cc1"
observed_value = 2.13

[[record]]
molecule = "CCOc1ccc2nc(NC(=O)COC)sc2c1"
observed_value = 1.66

[[record]]
molecule = "CCCCN(CC)CCNC(=O)Cn1cnc2sc(C)c(S(=O)(=O)N3CCOCC3)c2c1=O"
observed_value = 0.78

[[record]]
molecule = "Cc1ccc(-n2ncc3c(=O)[nH]c(SCC(=O)N4CCCC4)nc32)cc1C"
observed_value = 1.73

